system: STING in THP1-Dual Cells; experiment: STING cellular assay in THP1-Dual cells (Lucia luciferase IRF reporter); assay type: cell-based; settings: Homo sapiens, 24 h incubation, QUANTI-Luc readout, 1 nM-10 μM
So I've got a bunch of compounds here, and I need their pEC50 values.
Give bare numbers, as −log10 of the molar value.

# CHEM SMILES, pEC50
data = [
    ("CCn1nc(C)cc1-c1nc(Cl)c2c3cc(C(N)=O)cc(OC)c3n(C/C=C/Cn3c4nc(-c5cc(C)nn5CC)nc(Cl)c4c4cc(C(N)=O)cc(OCCCN5CCOCC5)c43)c2n1", 6.74),
]

--- query ---
Provide the reported pEC50 (system: STING in THP1-Dual Cells) for `CCn1nc(C)cc1-c1ncc2c3cc(C(N)=O)cc(OC)c3n(C/C=C/Cn3c4nc(-c5cc(C)nn5CC)ncc4c4cc(C(N)=O)cc(OCCCN5CCOCC5)c43)c2n1`
8.46
